# measurement.target: T1, recombinant, soluble human ASGR-1 (human, UniProt P07306 62-291)
# T1 construct: biotinylated in the binning assay; also called soluble huASGR-1; Soluble ASGR-1 (Amgen)
# T1 sequence: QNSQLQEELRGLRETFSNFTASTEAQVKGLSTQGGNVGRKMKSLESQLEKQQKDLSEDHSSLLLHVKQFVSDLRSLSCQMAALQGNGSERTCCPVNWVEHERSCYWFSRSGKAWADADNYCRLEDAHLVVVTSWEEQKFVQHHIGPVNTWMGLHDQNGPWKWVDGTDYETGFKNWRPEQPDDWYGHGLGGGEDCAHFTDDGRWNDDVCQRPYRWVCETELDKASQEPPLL
# protocol.details: Octet BLI dissociation, pH 5.6 plus calcium

binder	% Change Compared to pH 7.4 + Calcium
65C12 (antibody, V domains shown, hybridoma mAb) VH: EVQLVESGGGLVKPGGSLRLSCAASGFTFRSFSLNWVRQAPGKGLEWVSSISSSSSYIYYADSVKGRFTISRDNAKNSLYLQMNSLRAEDTAVYYCARDAYSHYWGQGTLVTVSS VL: EIVMTQSPATLSVFPGEGATLSCRASQSVSINLAWYQQKPGQAPRLLIYGASTRATGIPARFNASGSGTEFTLSISSLQSENFAVYYCQQYNTWPLTFGGGTKVEIK	0%
148H10 (antibody, V domains shown, hybridoma mAb) VH: QVQLVESGGGVVQPGRSLRLSCAASGFTFSSYGMHWVRQAPGKGLEWVAVIWYDGSNKYYGDSVKGRFTISRDNSKNTLYLQMNSLRAEDTAVYYCARRYSSSWSGGMDVWGQGTTVTVSS VL: DIVMTQTPLSLSVTPGQPASISCKSSQSLLHSEGKTYLYWYLQKPGQPPQLLIYEVSYRVSGVPDRFSGSGSGTDFTLKISRVEAEDVGVYYCMQSIQLPLTFGGGTKVEIK	10%
